Test: AUC (0 to t) in Sprague-Dawley rat at 25 mg/kg, po
Format: ADME, organism-based
Details: in vivo
Recorded Endpoint: AUC(0-t) (µM·h)

smiles_structure=CCCC[C@@H]1[C@H]2CCCN3CCC[C@@H](CN1S(=O)(=O)c1ccccc1C#N)[C@@H]23 measurement_unit=µM·h obs_value=30.9

====

Assay: Selectivity index, ratio of TC50 for African green monkey Vero cells to IC50 for Coxsackievirus B5 Faulkner infected in African green monkey Vero cells
Assay type: toxicity
Details: read-out: Selectivity Index
Recorded Endpoint: selectivity ratio

smiles_structure=CCCC[C@@H]1[C@H]2CCCN3CCC[C@@H](CN1S(=O)(=O)c1ccccc1C#N)[C@@H]23 recorded_endpoint="selectivity ratio" obs_value="> 290"

====

Experiment: Selectivity index, ratio of TC50 for African green monkey Vero cells to IC50 for Coxsackievirus B6 Schmitt infected in African green monkey Vero cells
Assay type: toxicity
Details: read-out: Selectivity Index
Recorded Endpoint: selectivity ratio

smiles_structure=CCCC[C@@H]1[C@H]2CCCN3CCC[C@@H](CN1S(=O)(=O)c1ccccc1C#N)[C@@H]23 recorded_endpoint="selectivity ratio" obs_value=75.3

====

Assay: Acute toxicity in po dosed Kunming mouse measured for 7 days
Assay type: organism-based
Conditions: in vivo
Listing: LD50 at 168 h of selected compounds
Recorded Endpoint: LD50 at 168 h (mg/kg)

smiles_structure=N#Cc1ccc(S(=O)(=O)N2C[C@@H]3CCCN4CCC[C@@H]([C@H]34)[C@H]2CCCCF)cc1 comparative_sign== obs_value=353
smiles_structure=N#Cc1ccccc1S(=O)(=O)N1C[C@@H]2CCCN3CCC[C@@H]([C@H]23)[C@H]1CCCCCl comparative_sign== obs_value=348
smiles_structure=N#Cc1ccccc1S(=O)(=O)N1C[C@@H]2CCCN3CCC[C@@H]([C@H]23)[C@H]1CCCCF comparative_sign== obs_value=560
smiles_structure=O=S(=O)(c1ccccc1/C=N/O)N1C[C@@H]2CCCN3CCC[C@@H]([C@H]23)[C@H]1CCO comparative_sign=< obs_value=500
smiles_structure=N#Cc1ccccc1S(=O)(=O)N1C[C@@H]2CCCN3CCC[C@@H]([C@H]23)[C@H]1CCCl comparative_sign== obs_value=348
smiles_structure=N#Cc1cccc(S(=O)(=O)N2C[C@@H]3CCCN4CCC[C@@H]([C@H]34)[C@H]2CCCCF)c1 comparative_sign== obs_value=654
smiles_structure=CCCC[C@@H]1[C@H]2CCCN3CCC[C@@H](CN1S(=O)(=O)c1ccccc1C#N)[C@@H]23 comparative_sign=> obs_value=500
smiles_structure=N#Cc1cccc(S(=O)(=O)N2C[C@@H]3CCCN4CCC[C@@H]([C@H]34)[C@H]2CCCl)c1 comparative_sign== obs_value=348

====

Assay: Half life in Sprague-Dawley rat at 25 mg/kg, po
Format: ADME, organism-based
Settings: in vivo
Recorded Endpoint: half-life (h)

smiles_structure=CCCC[C@@H]1[C@H]2CCCN3CCC[C@@H](CN1S(=O)(=O)c1ccccc1C#N)[C@@H]23 recorded_endpoint=half-life obs_value=2.48

====

Assay: Selectivity index, ratio of TC50 for African green monkey Vero cells to IC50 for Coxsackievirus B3 Nancy infected in African green monkey Vero cells
Assay type: toxicity
Conditions: read-out: Selectivity Index
Listing: selectivity ratio of selected compounds
Recorded Endpoint: selectivity ratio

smiles_structure=O=S(=O)(c1ccc(C(F)(F)F)cc1)N1C[C@@H]2CCCN3CCC[C@@H]([C@H]23)[C@H]1CCF recorded_endpoint="selectivity ratio" comparative_sign== obs_value=27.6
smiles_structure=CCCC[C@@H]1[C@H]2CCCN3CCC[C@@H](CN1S(=O)(=O)c1ccc(N)cc1)[C@@H]23 recorded_endpoint="selectivity ratio" comparative_sign== obs_value=3.6
smiles_structure=CCCC[C@@H]1[C@H]2CCCN3CCC[C@@H](CN1S(=O)(=O)c1ccc(OC)cc1)[C@@H]23 recorded_endpoint="selectivity ratio" comparative_sign== obs_value=16.6
smiles_structure=C1CCN2C[C@@H]3CCCN4CCC[C@@H]([C@H]34)[C@H]2C1 recorded_endpoint="selectivity ratio" comparative_sign== obs_value=11.4
smiles_structure=CC(=O)c1ccc(S(=O)(=O)N2C[C@@H]3CCCN4CCC[C@@H]([C@H]34)[C@H]2CCCl)cc1 recorded_endpoint="selectivity ratio" comparative_sign== obs_value=20.5
smiles_structure=N#Cc1ccccc1S(=O)(=O)N1C[C@@H]2CCCN3CCC[C@@H]([C@H]23)[C@H]1CCCCCl recorded_endpoint="selectivity ratio" comparative_sign== obs_value=51.2
smiles_structure=N#Cc1cccc(S(=O)(=O)N2C[C@@H]3CCCN4CCC[C@@H]([C@H]34)[C@H]2CCF)c1 recorded_endpoint="selectivity ratio" comparative_sign=> obs_value=6.84
smiles_structure=CCCC[C@@H]1[C@H]2CCCN3CCC[C@@H](CN1S(=O)(=O)c1ccccc1[N+](=O)[O-])[C@@H]23 recorded_endpoint="selectivity ratio" comparative_sign== obs_value=92.5

====

Assay: Cytotoxicity against African green monkey Vero cells assessed as cytopathic effect after 48 hrs
Assay type: cell-based
Conditions: chlorocebus sabaeus, read-out: TC50
Recorded Endpoint: CC50 at 48 h (µM)

smiles_structure=C1CCN2C[C@@H]3CCCN4CCC[C@@H]([C@H]34)[C@H]2C1 measurement_unit=µM comparative_sign== obs_value=652
smiles_structure=CCCC[C@@H]1[C@H]2CCCN3CCC[C@@H](CN1S(=O)(=O)c1ccc(OC)cc1)[C@@H]23 measurement_unit=µM comparative_sign== obs_value=96.2
smiles_structure=CCCC[C@@H]1[C@H]2CCCN3CCC[C@@H](CN1S(=O)(=O)c1ccc(NC(C)=O)cc1)[C@@H]23 measurement_unit=µM comparative_sign== obs_value=96.2
smiles_structure=N#Cc1ccc(S(=O)(=O)N2C[C@@H]3CCCN4CCC[C@@H]([C@H]34)[C@H]2CCCCF)cc1 measurement_unit=µM comparative_sign== obs_value=276
smiles_structure=NC(=O)c1cccc(S(=O)(=O)N2C[C@@H]3CCCN4CCC[C@@H]([C@H]34)[C@H]2CCO)c1 measurement_unit=µM comparative_sign=> obs_value=491
smiles_structure=CCCC[C@@H]1[C@H]2CCCN3CCC[C@@H](CN1S(=O)(=O)c1ccc(C(=O)OC)cc1)[C@@H]23 measurement_unit=µM comparative_sign== obs_value=367
smiles_structure=N#Cc1ccccc1S(=O)(=O)N1C[C@@H]2CCCN3CCC[C@@H]([C@H]23)[C@H]1CCCl measurement_unit=µM comparative_sign=> obs_value=452
smiles_structure=CCCC[C@@H]1[C@H]2CCCN3CCC[C@@H](CN1S(=O)(=O)c1cccc(C(=O)OC)c1)[C@@H]23 measurement_unit=µM comparative_sign== obs_value=73.7
smiles_structure=CCCC[C@@H]1[C@H]2CCCN3CCC[C@@H](CN1S(=O)(=O)c1ccc(N)cc1)[C@@H]23 measurement_unit=µM comparative_sign== obs_value=82.9
smiles_structure=CC(=O)c1ccc(S(=O)(=O)N2C[C@@H]3CCCN4CCC[C@@H]([C@H]34)[C@H]2CCCl)cc1 measurement_unit=µM comparative_sign== obs_value=251
smiles_structure=N#Cc1cccc(S(=O)(=O)N2C[C@@H]3CCCN4CCC[C@@H]([C@H]34)[C@H]2CCCCCl)c1 measurement_unit=µM comparative_sign== obs_value=204

====

Test: Selectivity index, ratio of TC50 for African green monkey Vero cells to IC50 for Coxsackievirus B2 Ohio-1 infected in African green monkey Vero cells
Format: toxicity
Details: read-out: Selectivity Index
Recorded Endpoint: selectivity ratio

smiles_structure=CCCC[C@@H]1[C@H]2CCCN3CCC[C@@H](CN1S(=O)(=O)c1ccccc1C#N)[C@@H]23 recorded_endpoint="selectivity ratio" obs_value="> 121"

====

Assay: Selectivity index, ratio of TC50 for African green monkey Vero cells to IC50 for Coxsackievirus B1 Conn 5 infected in African green monkey Vero cells
Format: toxicity
Details: read-out: Selectivity Index
Recorded Endpoint: selectivity ratio

smiles_structure=CCCC[C@@H]1[C@H]2CCCN3CCC[C@@H](CN1S(=O)(=O)c1ccccc1C#N)[C@@H]23 recorded_endpoint="selectivity ratio" obs_value="> 132"

====

Test: Selectivity index, ratio of TC50 for African green monkey Vero cells to IC50 for Coxsackievirus B4 JVB infected in African green monkey Vero cells
Assay type: toxicity
Conditions: read-out: Selectivity Index
Recorded Endpoint: selectivity ratio

smiles_structure=CCCC[C@@H]1[C@H]2CCCN3CCC[C@@H](CN1S(=O)(=O)c1ccccc1C#N)[C@@H]23 obs_value="> 38.9"

====

Assay: Cytotoxicity against African green monkey Vero cells assessed as cytopathic effect after 48 hrs
Assay type: cell-based
Conditions: chlorocebus sabaeus, read-out: TC50
Labelling field: enter T if recorded CC50 at 48 h is less than 200 µM. Enter F if it equals or exceeds that cut-off.

smiles_structure=O=S(=O)(c1ccccc1C(F)(F)F)N1C[C@@H]2CCCN3CCC[C@@H]([C@H]23)[C@H]1CCCCF category_label=F
smiles_structure=O=S(=O)(c1ccccc1/C=N/O)N1C[C@@H]2CCCN3CCC[C@@H]([C@H]23)[C@H]1CCO category_label=F
smiles_structure=CCCC[C@@H]1[C@H]2CCCN3CCC[C@@H](CN1S(=O)(=O)c1cccc(C#N)c1)[C@@H]23 category_label=T
smiles_structure=O=S(=O)(c1ccc(C(F)(F)F)cc1)N1C[C@@H]2CCCN3CCC[C@@H]([C@H]23)[C@H]1CCCCF category_label=T
smiles_structure=CCCC[C@@H]1[C@H]2CCCN3CCC[C@@H](CN1S(=O)(=O)c1ccccc1[N+](=O)[O-])[C@@H]23 category_label=F
smiles_structure=O=S(=O)(c1ccc(C(F)(F)F)cc1)N1C[C@@H]2CCCN3CCC[C@@H]([C@H]23)[C@H]1CCF category_label=F
smiles_structure=N#Cc1cccc(S(=O)(=O)N2C[C@@H]3CCCN4CCC[C@@H]([C@H]34)[C@H]2CCCl)c1 category_label=F
smiles_structure=N#Cc1cccc(S(=O)(=O)N2C[C@@H]3CCCN4CCC[C@@H]([C@H]34)[C@H]2CCCCF)c1 category_label=F
smiles_structure=CCCC[C@@H]1[C@H]2CCCN3CCC[C@@H](CN1S(=O)(=O)c1ccccc1C(=O)OC)[C@@H]23 category_label=F
smiles_structure=NC(=O)c1ccc(S(=O)(=O)N2C[C@@H]3CCCN4CCC[C@@H]([C@H]34)[C@H]2CCO)cc1 category_label=F
smiles_structure=N#Cc1ccccc1S(=O)(=O)N1C[C@@H]2CCCN3CCC[C@@H]([C@H]23)[C@H]1CCCCF category_label=F
smiles_structure=O=S(=O)(c1cccc(C(F)(F)F)c1)N1C[C@@H]2CCCN3CCC[C@@H]([C@H]23)[C@H]1CCCCF category_label=T
smiles_structure=N#Cc1cccc(S(=O)(=O)N2C[C@@H]3CCCN4CCC[C@@H]([C@H]34)[C@H]2CCF)c1 category_label=F
